- SYSTEM: 5-LO in PMNL (Homo sapiens, UniProt P09917)
- Sequence (P09917 whole entry): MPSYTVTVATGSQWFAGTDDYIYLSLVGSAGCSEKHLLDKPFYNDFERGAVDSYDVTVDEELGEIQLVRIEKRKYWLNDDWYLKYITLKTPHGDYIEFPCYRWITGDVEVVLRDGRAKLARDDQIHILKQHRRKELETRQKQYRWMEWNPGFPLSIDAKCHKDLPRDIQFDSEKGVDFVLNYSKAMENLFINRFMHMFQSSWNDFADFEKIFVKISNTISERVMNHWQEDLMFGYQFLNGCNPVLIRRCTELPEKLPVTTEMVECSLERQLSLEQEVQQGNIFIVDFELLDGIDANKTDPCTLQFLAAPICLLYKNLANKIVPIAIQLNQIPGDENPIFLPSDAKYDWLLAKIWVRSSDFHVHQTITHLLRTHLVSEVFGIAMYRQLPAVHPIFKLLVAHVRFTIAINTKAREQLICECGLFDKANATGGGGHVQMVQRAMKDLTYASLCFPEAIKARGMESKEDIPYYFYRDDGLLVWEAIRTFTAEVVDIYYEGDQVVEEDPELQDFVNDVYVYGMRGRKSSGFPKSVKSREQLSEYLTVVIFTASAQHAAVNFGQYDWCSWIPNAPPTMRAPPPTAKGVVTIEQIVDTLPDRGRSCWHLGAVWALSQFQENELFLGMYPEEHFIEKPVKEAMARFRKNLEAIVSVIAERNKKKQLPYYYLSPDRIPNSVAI
- PROTOCOL_DETAILS: cell-based
- ASSAY_CONDITIONS: intact human PMNL, A23187 2.5 µM + 20 µM AA, n=3, >10 = significant inhibition at 10 µM, >>10 = no significant inhibition at 10 µM
QUANTITY: IC50

Illustrative cases are given below, each with its answer.
[[record]]
compound = "CCCCCc1cc(OC)cc(O)c1C(=O)Oc1cc(O)c(C(=O)O)c(CCC)c1"
result = "5.3 µM"

[[record]]
compound = "CCCc1cc(O)cc(O)c1"
result = "> 10 µM"

[[record]]
compound = "CCCCCc1cc(O)cc(O)c1C(=O)OCC [compound 8, ethyl olivetolate]"
result = "6.8 µM"

[[record]]
compound = "CCCCCc1cc(OC(=O)c2c(O)cc(OC)cc2CCCCC)cc(O)c1C(=O)O"
result = "1.8 µM"

[[record]]
compound = "COC(=O)c1c(C)cc(O)c(C)c1O [compound 2, methylbetaorcinolcarboxylate]"
result = "> 10 µM"

[[record]]
compound = "COC(=O)c1c(C)cc(OC(=O)c2c(C)cc(O)c(C=O)c2O)c(C)c1O"
result = "> 10 µM"


Return IC50 measured with 5-LO in PMNL (Homo sapiens, UniProt P09917) given this compound: CCCCCc1cc(O)cc(O)c1 > 10 µM

Same question, CCCCCc1cc(OC)cc(O)c1C(=O)O this time > 10 µM
